- Tested on: rat hypercalcemia induced by PTHrp(1-34)
- assay method text: Rat hypercalcemia induced by PTHrp(1-34), oral administration
- Format: in vivo, male Wistar rats
- condition notes: 40 mg/kg oral, 4 hours before PTHrp(1-34) 5 nmole/kg i.v.; blood 1 hour after PTHrp; n = 5
Non-standard residues stand in square brackets, D forms with d. Residues, ends and D or L forms follow the SMILES beside them. *: point of attachment. Nle = CCCC[C@H](N)C(=O)O; Cbz = O=C(OCc1ccccc1)*
quantity: Ca conc. ± standard error (mg/dL)

# molecule, reported measurement
records = [
    ("CCCC[C@@H](C=O)NC(=O)[C@H](CC(C)C)NC(=O)[C@H](CC(C)C)NC(C)=O [Compound 22, N-Acetyl-leucyl-leucyl-norleucinal] (Ac-Leu-Leu-[Nle]-aldehyde)", 9.49),
    ("CCCC[C@@H](C=O)NC(=O)[C@H](CC(C)C)NC(=O)[C@H](CC(C)C)NC(=O)OCc1ccccc1 [Compound 23] (Cbz-Leu-Leu-[Nle]-aldehyde)", 9.53),
    ("CC(C)CC(NC(=O)C1OC1C(=O)O)C(=O)NCCCCNC(=N)N (stereo not shown) [Compound E-64, reference compound]", 9.69),
    ("CSCC[C@@H](C=O)NC(=O)[C@H](CC(C)C)NC(=O)[C@H](CC(C)C)NC(C)=O [Compound 21, N-Acetyl-leucyl-leucyl-methioninal] (Ac-Leu-Leu-Met-aldehyde)", 9.78),
]
